Assay: Oral bioavailability in mouse at 5 mg/kg
Assay type: ADME, organism-based
Details: in vivo
value kind: bioavailability
Please format your answer as a value with the unit trailing.

Quick one: bioavailability for O=C(NCc1ccc(NS(=O)(=O)C(F)(F)F)cc1)c1ccc(-c2ccc(Cl)cc2)cc1 ?
16%

###

Experiment: Half life in mouse plasma at 0.2 mg/kg, iv or 5 mg/kg, po
Assay type: ADME, organism-based
value kind: half-life (h)
State just the number; it will be interpreted in h.

Quick one: half-life for O=C(NCc1ccc(NS(=O)(=O)C(F)(F)F)cc1)c1ccc(-c2ccc(Cl)cc2)cc1 ?
4.9

###

So I've got a bunch of molecules here, and I need their EC50 values.

So what EC50 did Cc1ccc(S(=O)(=O)Nc2ccc(CNC(=O)c3sc(-c4ccc(C(F)(F)F)cc4)nc3C)cc2)cc1 get with Peroxisome proliferator-activated receptor delta (Mus musculus)?
> 10 µM

So what EC50 did Cc1nc(-c2ccc(C(F)(F)F)cc2)sc1C(=O)NCc1ccc(OC(C)(C)C(=O)O)cc1 get with Peroxisome proliferator-activated receptor delta (Mus musculus)?
1.7 µM

So what EC50 did Cc1nc(-c2ccc(C(F)(F)F)cc2)sc1C(=O)NCc1ccc(-c2c(O)c(=O)c2=O)cc1 get with Peroxisome proliferator-activated receptor delta (Mus musculus)?
> 10 µM

So what EC50 did Cc1nc(-c2ccc(C(F)(F)F)cc2)sc1C(=O)NCc1ccc(NS(=O)(=O)C(F)(F)F)cc1 get with Peroxisome proliferator-activated receptor delta (Mus musculus)?
0.3 µM

So what EC50 did Cc1nc(-c2ccc(C(F)(F)F)cc2)sc1C(=O)NCc1ccc(NC(=O)C(F)(F)F)cc1 get with Peroxisome proliferator-activated receptor delta (Mus musculus)?
> 10 µM

So what EC50 did Cc1nc(-c2ccc(C(F)(F)F)cc2)sc1C(=O)NCc1ccc(OCc2nn[nH]n2)cc1 get with Peroxisome proliferator-activated receptor delta (Mus musculus)?
> 10 µM

So what EC50 did CCCCS(=O)(=O)Nc1ccc(CNC(=O)c2sc(-c3ccc(C(F)(F)F)cc3)nc2C)cc1 get with Peroxisome proliferator-activated receptor delta (Mus musculus)?
> 10 µM

So what EC50 did O=C(NCc1ccc(NS(=O)(=O)C(F)(F)F)cc1)c1ccc(-c2ccc(Cl)cc2)cc1 get with Peroxisome proliferator-activated receptor delta (Mus musculus)?
> 10 µM

So what EC50 did Cc1nc(-c2ccc(C(F)(F)F)cc2)sc1C(=O)NCc1ccc(NS(=O)(=O)C(C)C)cc1 get with Peroxisome proliferator-activated receptor delta (Mus musculus)?
> 10 µM

So what EC50 did Cc1nc(-c2ccc(C(F)(F)F)cc2)sc1C(=O)NCc1ccc(OC(C)(C)C(=O)NS(=O)(=O)C(F)(F)F)cc1 get with Peroxisome proliferator-activated receptor delta (Mus musculus)?
> 10 µM

So what EC50 did Cc1nc(-c2ccc(C(F)(F)F)cc2)sc1C(=O)NCc1ccc(NS(C)(=O)=O)cc1 get with Peroxisome proliferator-activated receptor delta (Mus musculus)?
> 10 µM

So what EC50 did Cc1nc(-c2ccc(C(F)(F)F)cc2)sc1C(=O)NCc1ccc(NS(=O)(=O)CC(F)(F)F)cc1 get with Peroxisome proliferator-activated receptor delta (Mus musculus)?
> 10 µM

So what EC50 did Cc1nc(-c2ccc(C(F)(F)F)cc2)sc1C(=O)NCc1ccc(CNS(=O)(=O)C(F)(F)F)cc1 get with Peroxisome proliferator-activated receptor delta (Mus musculus)?
> 10 µM

Numbers sourced from ChEMBL document CHEMBL1140804.
